B1: RHOBTB3 (parent)
chain: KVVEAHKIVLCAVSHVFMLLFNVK

Variants of: B1
Experiment: protein stability index of a GFP-peptide fusion (GPS, HEK-293T) (PSI 1-6); higher = more stable;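 also: lentivirally expressed fusions sorted by FACS into six bins by GFP to DsRed ratio, PSI derived from sequencing read proportions per bin multiplied by bin number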
Settings: c terminus: a fixed tail appended
# protein stability index >= 2 gives satisfied, anything below gives not satisfied

# VARIANT IDENTIFIER, CLASSIFICATION
data = [
    ("V16T", "satisfied"),
    ("V9C", "satisfied"),
    ("V9G", "satisfied"),
    ("N22Y", "not satisfied"),
    ("L10W", "not satisfied"),
]

Does the variant "H15S" have recorded protein stability index that is 2 or more?
satisfied

Check if protein stability index >= 2 (inclusive). Item: "K24H"
not satisfied

Hi team, for "H15T" , is the recorded protein stability index at or above 2?
not satisfied

# bool: protein stability index of "F17G" >= 2
satisfied

Hi, just wondering whether "E4S" shows protein stability index of 2 or higher.
not satisfied
